Target: HIV-1 protease 11 Mutant (Human immunodeficiency virus type 1 group M subtype B)
Construct: onto NL4-3 wild-type protease on a pET11a plasmid with codon optimization for protein expression in Escherichia coli; A Q7K mutation was included to prevent autoproteolysis
Assay: HIV enzyme inhibition assay (Ki), 11 Mutant variant
Settings: drug-resistant protease variant 11 Mutant
Here the recorded Ki is given for each entry.

INSERT INTO results (molecule, result) VALUES
  ('CCOP(=O)(COc1ccc(C[C@H](NC(=O)O[C@H]2CO[C@H]3OCC[C@H]32)[C@H](O)CN(CC(CC)CC)S(=O)(=O)c2ccc(N)cc2)cc1)OCC [Example 7]', '0.106 µM'),
  ('CCOP(=O)(COc1ccc(C[C@H](NC(=O)O[C@H]2CO[C@H]3OCC[C@H]32)[C@H](O)CN(C[C@@H](C)CC)S(=O)(=O)c2ccc(OC)cc2)cc1)OCC [Example 3]', '0.0105 µM'),
  ('CCOP(=O)(COc1ccc(C[C@H](NC(=O)O[C@H]2CO[C@H]3OCC[C@H]32)[C@H](O)CN(C[C@@H](C)CC)S(=O)(=O)c2ccc(CO)cc2)cc1)OCC [Example 6]', '0.103 µM'),
  ('CCOP(=O)(COc1ccc(C[C@H](NC(=O)O[C@H]2CO[C@H]3OCC[C@H]32)[C@H](O)CN(CC(CC)CC)S(=O)(=O)c2ccc3c(c2)OCO3)cc1)OCC [Example 4]', '0.0069 µM');

Field: next molecule
Prompt: Determine its reported Ki: CCOP(=O)(COc1ccc(C[C@H](NC(=O)O[C@H]2CO[C@H]3OCC[C@H]32)[C@H](O)CN(CC(CC)CC)S(=O)(=O)c2ccc(OC)cc2)cc1)OCC [Example 8]
Completion: 0.0022 µM

* * *

Recorded Ki, one value per entry.
Molecular target: HIV-1 protease 8 Mutant (Human immunodeficiency virus type 1 group M subtype B, UniProt P12497)
Construct: onto NL4-3 wild-type protease on a pET11a plasmid with codon optimization for protein expression in Escherichia coli; A Q7K mutation was included to prevent autoproteolysis
Assay: HIV enzyme inhibition assay (Ki), 8 Mutant variant
Settings: drug-resistant protease variant 8 Mutant
Dear colleague, please return just the value in nM, with no unit written.

INSERT INTO results (test_smiles, unit_label, numeric_result) VALUES
  ('CCOP(=O)(COc1ccc(C[C@H](NC(=O)O[C@H]2CO[C@H]3OCC[C@H]32)[C@H](O)CN(CC(C)C)S(=O)(=O)c2ccc3ncsc3c2)cc1)OCC', 'nM', 0.93);

Prompt: Answer with reported Ki of CCOP(=O)(COc1ccc(C[C@H](NC(=O)O[C@H]2CO[C@H]3OCC[C@H]32)[C@H](O)CN(CC(CC)CC)S(=O)(=O)c2ccc(CO)cc2)cc1)OCC
Completion: 2.2

Prompt: Return Ki for the following compound: CCOP(=O)(COc1ccc(C[C@H](NC(=O)O[C@H]2CO[C@H]3OCC[C@H]32)[C@H](O)CN(C[C@@H](C)CC)S(=O)(=O)c2ccc(OC)cc2)cc1)OCC
Completion: 0.78

* * *

Target: HIV-1 protease 10 Mutant (Human immunodeficiency virus type 1 group M subtype B)
Construct: onto NL4-3 wild-type protease on a pET11a plasmid with codon optimization for protein expression in Escherichia coli; A Q7K mutation was included to prevent autoproteolysis
Test: HIV enzyme inhibition assay (Ki), 10 Mutant variant
Conditions: drug-resistant protease variant 10 Mutant
# key: entry, value: Ki
Expressed in nM, but write only the number.

Some solved cases for reference:
INSERT INTO results (test_smiles, recorded_metric, unit_label, numeric_result) VALUES
  ('CCOP(=O)(COc1ccc(C[C@H](NC(=O)O[C@H]2CO[C@H]3OCC[C@H]32)[C@H](O)CN(C[C@@H](C)CC)S(=O)(=O)c2ccc(N)cc2)cc1)OCC', 'Ki', 'nM', 146),
  ('CCOP(=O)(COc1ccc(C[C@H](NC(=O)O[C@H]2CO[C@H]3OCC[C@H]32)[C@H](O)CN(C[C@@H](C)CC)S(=O)(=O)c2ccc(OC)cc2)cc1)OCC', 'Ki', 'nM', 3.7),
  ('CCOP(=O)(COc1ccc(C[C@H](NC(=O)O[C@H]2CO[C@H]3OCC[C@H]32)[C@H](O)CN(CC(CC)CC)S(=O)(=O)c2ccc3c(c2)OCO3)cc1)OCC', 'Ki', 'nM', 1.6),
  ('CCOP(=O)(COc1ccc(C[C@H](NC(=O)O[C@H]2CO[C@H]3OCC[C@H]32)[C@H](O)CN(C[C@@H](C)CC)S(=O)(=O)c2ccc(CO)cc2)cc1)OCC', 'Ki', 'nM', 52.9);

Prompt: Find Ki for CCOP(=O)(COc1ccc(C[C@H](NC(=O)O[C@H]2CO[C@H]3OCC[C@H]32)[C@H](O)CN(CC(C)C)S(=O)(=O)c2ccc3c(c2)OCO3)cc1)OCC on HIV-1 protease 10 Mutant (Human immunodeficiency virus type 1 group M subtype B) and write it down.
Completion: 4.5

* * *

Quick list: pKi per entry.
Biological target: HIV-1 protease 8 Mutant (Human immunodeficiency virus type 1 group M subtype B, UniProt P12497)
Construct: onto NL4-3 wild-type protease on a pET11a plasmid with codon optimization for protein expression in Escherichia coli; A Q7K mutation was included to prevent autoproteolysis
Assay: HIV enzyme inhibition assay (Ki), 8 Mutant variant
Type: biochemical
Conditions: drug-resistant protease variant 8 Mutant
Reminder that pKi means the negative base-10 logarithm of the concentration expressed in mol/L.

Prompt: Determine from records and report pKi for CCOP(=O)(COc1ccc(C[C@H](NC(=O)O[C@H]2CO[C@H]3OCC[C@H]32)[C@H](O)CN(CC(C)C)S(=O)(=O)c2ccc3c(c2)OCO3)cc1)OCC
Completion: 8.66

Prompt: Please supply the value of reported pKi for the item CCOP(=O)(COc1ccc(C[C@H](NC(=O)O[C@H]2CO[C@H]3OCC[C@H]32)[C@H](O)CN(CC(CC)CC)S(=O)(=O)c2ccc(N)cc2)cc1)OCC
Completion: 8.33

Prompt: Fill in reported pKi for this entry: CCOP(=O)(COc1ccc(C[C@H](NC(=O)O[C@H]2CO[C@H]3OCC[C@H]32)[C@H](O)CN(C[C@@H](C)CC)S(=O)(=O)c2ccc(CO)cc2)cc1)OCC
Completion: 8.30

Prompt: Supply recorded pKi for CCOP(=O)(COc1ccc(C[C@H](NC(=O)O[C@H]2CO[C@H]3OCC[C@H]32)[C@H](O)CN(CC(CC)CC)S(=O)(=O)c2ccc3ncsc3c2)cc1)OCC here.
Completion: 9.60

Prompt: Indicate the recorded pKi value for this molecule: CCOP(=O)(COc1ccc(C[C@H](NC(=O)O[C@H]2CO[C@H]3OCC[C@H]32)[C@H](O)CN(CC(CC)CC)S(=O)(=O)c2ccc3c(c2)OCO3)cc1)OCC
Completion: 9.43

Prompt: Recall and state the measured pKi for CCOP(=O)(COc1ccc(C[C@H](NC(=O)O[C@H]2CO[C@H]3OCC[C@H]32)[C@H](O)CN(C[C@@H](C)CC)S(=O)(=O)c2ccc3ncsc3c2)cc1)OCC .
Completion: 8.74

Prompt: Kindly indicate its recorded pKi. Item: CCOP(=O)(COc1ccc(C[C@H](NC(=O)O[C@H]2CO[C@H]3OCC[C@H]32)[C@H](O)CN(C[C@@H](C)CC)S(=O)(=O)c2ccc(N)cc2)cc1)OCC
Completion: 7.88

Prompt: Quote pKi reported for CCOP(=O)(COc1ccc(C[C@H](NC(=O)O[C@H]2CO[C@H]3OCC[C@H]32)[C@H](O)CN(CC(CC)CC)S(=O)(=O)c2ccc(OC)cc2)cc1)OCC please.
Completion: 9.11

* * *

The compounds listed here are annotated with their Ki.
Target: HTLV-1 protease (Human T-cell leukemia virus type I, UniProt Q82134, L40I)
Sequence (Q82134 entry or part of it L40I): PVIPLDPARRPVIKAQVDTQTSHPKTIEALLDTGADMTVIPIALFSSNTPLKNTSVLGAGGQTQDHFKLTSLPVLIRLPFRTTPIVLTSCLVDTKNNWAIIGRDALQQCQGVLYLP
Test: biochemical
Expressed in µM, but write only the number.

INSERT INTO results (compound, system_under_test, numeric_result) VALUES
  ('CCOP(=O)(COc1ccc(C[C@H](NC(=O)O[C@H]2CO[C@H]3OCC[C@H]32)[C@H](O)CN(CC(CC)CC)S(=O)(=O)c2ccc(N)cc2)cc1)OCC', 'HTLV-1 protease (Human T-cell leukemia virus type I, UniProt Q82134, L40I)', 0.03);

Read the next record carefully.
Prompt: Using the record for CC(C)(C)NC(=O)[C@@H]1CN(Cc2cccnc2)CCN1C[C@@H](O)C[C@@H](Cc1ccccc1)C(=O)N[C@H]1c2ccccc2C[C@H]1O [IDV, indinavir, reference compound] , state its measured Ki.
Completion: 60

* * *

// Ki lookup, one value per entry
Biological target: HIV-1 protease 11 Mutant (Human immunodeficiency virus type 1 group M subtype B, UniProt P12497)
Construct: onto NL4-3 wild-type protease on a pET11a plasmid with codon optimization for protein expression in Escherichia coli; A Q7K mutation was included to prevent autoproteolysis
Test: HIV enzyme inhibition assay (Ki), 11 Mutant variant
Details: drug-resistant protease variant 11 Mutant
Form entry: value (nM) — number only.

Study these solved cases before continuing.
INSERT INTO measurements (test_smiles, recorded_metric, unit_label, numeric_result) VALUES
  ('CCOP(=O)(COc1ccc(C[C@H](NC(=O)O[C@H]2CO[C@H]3OCC[C@H]32)[C@H](O)CN(C[C@@H](C)CC)S(=O)(=O)c2ccc(N)cc2)cc1)OCC', 'Ki', 'nM', 259),
  ('CCOP(=O)(COc1ccc(C[C@H](NC(=O)O[C@H]2CO[C@H]3OCC[C@H]32)[C@H](O)CN(CC(C)C)S(=O)(=O)c2ccc3c(c2)OCO3)cc1)OCC', 'Ki', 'nM', 63.5);

Prompt: Please supply the value of reported Ki for the item CCOP(=O)(COc1ccc(C[C@H](NC(=O)O[C@H]2CO[C@H]3OCC[C@H]32)[C@H](O)CN(C[C@@H](C)CC)S(=O)(=O)c2ccc3ncsc3c2)cc1)OCC
Completion: 9.03

Prompt: Give the reported value of Ki for this record: CCOP(=O)(COc1ccc(C[C@H](NC(=O)O[C@H]2CO[C@H]3OCC[C@H]32)[C@H](O)CN(CC(C)C)S(=O)(=O)c2ccc3ncsc3c2)cc1)OCC
Completion: 15

Prompt: Could you please provide reported Ki for CCOP(=O)(COc1ccc(C[C@H](NC(=O)O[C@H]2CO[C@H]3OCC[C@H]32)[C@H](O)CN(CC(CC)CC)S(=O)(=O)c2ccc(CO)cc2)cc1)OCC ? Thanks!
Completion: 81.2
